study_target: UniProt P02786
Sequence (P02786 whole entry): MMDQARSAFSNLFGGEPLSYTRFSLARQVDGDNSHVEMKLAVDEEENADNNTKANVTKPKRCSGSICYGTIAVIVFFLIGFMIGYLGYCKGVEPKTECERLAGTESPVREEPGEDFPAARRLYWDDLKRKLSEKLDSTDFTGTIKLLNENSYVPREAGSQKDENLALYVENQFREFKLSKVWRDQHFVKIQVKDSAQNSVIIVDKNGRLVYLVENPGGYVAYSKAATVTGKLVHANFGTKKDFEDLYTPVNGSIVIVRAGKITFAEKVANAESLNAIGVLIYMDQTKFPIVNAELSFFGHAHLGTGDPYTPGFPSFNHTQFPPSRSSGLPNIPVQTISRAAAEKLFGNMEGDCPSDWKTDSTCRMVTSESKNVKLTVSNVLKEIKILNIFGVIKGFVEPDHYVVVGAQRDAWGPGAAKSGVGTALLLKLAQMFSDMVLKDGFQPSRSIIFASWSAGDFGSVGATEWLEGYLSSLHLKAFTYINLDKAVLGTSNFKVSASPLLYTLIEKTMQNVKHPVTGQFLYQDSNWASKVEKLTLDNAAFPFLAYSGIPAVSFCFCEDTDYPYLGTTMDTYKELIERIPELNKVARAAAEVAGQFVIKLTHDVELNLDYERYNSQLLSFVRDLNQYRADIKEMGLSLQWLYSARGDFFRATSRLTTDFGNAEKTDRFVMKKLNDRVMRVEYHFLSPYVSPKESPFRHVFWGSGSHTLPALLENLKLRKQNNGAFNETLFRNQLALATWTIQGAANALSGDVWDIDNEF
measurement_description: Intermolecular interaction evaluation test between transferrin receptor (hTfR) and peptide by surface plasmon resonance (SPR)
Format: binding
experimental_parameters: surface plasmon resonance, hTfR; read-out: KD value for hTfR by SPR (class symbol)
parameter_measured: Kd

Request: Dear colleague, I am looking for the recorded Kd of the following compound: CC[C@H](C)[C@@H]1NC(=O)[C@H](Cc2ccc(OC)cc2)NC(=O)[C@H](Cc2ccc(O)cc2)NC(=O)[C@H](CC(N)=O)NC(=O)[C@H](Cc2c[nH]c3ccccc23)N(C)C(=O)[C@H](C(C)C)NC(=O)[C@H](Cc2cccc(Cl)c2)N(C)C(=O)[C@H](C(C)C)NC(=O)[C@H](C)NC(=O)CSC[C@@H](C(N)=O)NC(=O)[C@H](Cc2ccc(O)cc2)N(C)C(=O)[C@H](CCC(=O)N[C@H](CCC(=O)O)C(=O)O)NC(=O)[C@@H](CCCNC(=N)N)NC(=O)[C@H](CCCNC(=N)N)NC(=O)[C@H]([C@@H](C)CC)NC1=O
Result: 1 to 100 nM

Attribution: patent US20230203098A1
